# test_protocol: Solubility of salts in water, pH of the saturated solution and identity of the precipitate
# Format: physicochemical
# test_parameters: whether precipitate isolated after solubility determination is identical to the compound dissolved
Where a name gives a salt, the structure may show the parent alone.
experimental_readout: Precipitate

Worked examples follow.
| compound | Precipitate |
| --- | --- |
| Cc1ccc(Sc2ccccc2C2CCNCC2)cc1 [HCl] | =Start |
| Cc1ccc(Sc2ccccc2C2CCNCC2)cc1 [Adipicacid, 1,6-hexanedioic acid 2:1] | =start |
| Cc1ccc(Sc2ccccc2C2CCNCC2)cc1 [Citric acid 2:1] | =Start |
| Cc1ccc(Sc2ccccc2C2CCNCC2)cc1 [Fumaric acid 1:1] | =start |
| Cc1ccc(Sc2ccccc2C2CCNCC2)cc1 [Glutaric acid, 1,5-pentanedioic acid 1:1] | =start |
| Cc1ccc(Sc2ccccc2C2CCNCC2)cc1 [Sebacoinic acid, 1,8-octanedioic acid 2:1] | =Start |

## Input Would you mind telling me what Precipitate value was observed for Cc1ccc(Sc2ccccc2C2CCNCC2)cc1 [Oxalic acid 1:1] ?
## Output =Start

These entries and their values trace back to patent US20170087138A1.
